// data source = ChEMBL document CHEMBL1201862

molecular target: Cytochrome P450 2C19 (Homo sapiens); assay: Cytochrome panel assay with activity outcomes. Panel member name: p450-cyp2c19 Compounds with AC50 equal or less than 10 uM are considered active; assay type: functional; conditions: read-out: AC50
Sequence (P33261 whole entry): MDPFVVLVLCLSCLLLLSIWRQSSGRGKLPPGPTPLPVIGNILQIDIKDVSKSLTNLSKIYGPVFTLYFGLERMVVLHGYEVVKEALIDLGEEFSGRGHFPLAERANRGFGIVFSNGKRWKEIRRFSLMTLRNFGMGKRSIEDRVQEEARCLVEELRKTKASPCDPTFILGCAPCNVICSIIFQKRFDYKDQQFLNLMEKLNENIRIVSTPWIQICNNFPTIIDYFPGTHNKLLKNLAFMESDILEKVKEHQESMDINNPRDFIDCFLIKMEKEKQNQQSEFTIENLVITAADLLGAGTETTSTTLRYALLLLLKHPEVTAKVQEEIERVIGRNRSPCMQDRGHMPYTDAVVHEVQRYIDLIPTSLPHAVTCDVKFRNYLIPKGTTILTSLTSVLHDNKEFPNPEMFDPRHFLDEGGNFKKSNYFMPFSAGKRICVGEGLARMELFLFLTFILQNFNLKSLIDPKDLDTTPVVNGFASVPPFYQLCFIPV
measured-quantity: AC50

# AC50 measured on Cytochrome P450 2C19 (Homo sapiens) for item COc1ccc(C(C(=O)NC(C)(C)C)N(C(=O)CNC(=O)c2cccs2)c2ccc(C)cc2)cc1OC (configuration not stated) = 17.8 µM (inconclusive)

// returns AC50 for `Cc1cnc(CNc2ccnc(-c3ccccc3Cl)n2)cn1` with Cytochrome P450 2C19 (Homo sapiens); value = 39.8 µM (inconclusive)

The compound `Cc1ccc(NC(=O)CCC(=O)NNS(=O)(=O)c2ccccc2)c(C)c1` , tested on Cytochrome P450 2C19 (Homo sapiens), showed AC50 of 17.8 µM (inconclusive)

The compound `COC(=O)[C@@]1(Cc2ccc(F)cc2)[C@H]2c3cc(C(=O)N(C)C)n(CCc4c[nH]c5ccc(OC)cc45)c3C[C@H]2CN1C(=O)c1ccccc1` on Cytochrome P450 2C19 (Homo sapiens): AC50 was 39.8 µM (inconclusive)

Per the reported Cytochrome P450 2C19 (Homo sapiens) data, `CCCn1nc2cc(C(=O)NCc3ccc4c(c3)OCO4)ccc2c1OCC` has AC50 of 14.1 µM (inconclusive)

Result for `COC(=O)N1CCC2(CC1)CN(C(c1ccccc1)c1ccccc1)C2` , tested on Cytochrome P450 2C19 (Homo sapiens), AC50: 39.8 µM (inconclusive)

Form: item `O=C(Nc1ccc(N=Nc2ccccc2)cc1)c1ccc(Cl)cc1Cl` ; test system Cytochrome P450 2C19 (Homo sapiens); AC50: 39.8 µM (inconclusive)

# `Cc1ccc(NC(=O)c2cc(NC(=O)CCCC(=O)O)ccc2Cl)cc1Cl` with Cytochrome P450 2C19 (Homo sapiens): AC50 is 0.891 µM (inconclusive)

Query `O=C(Nc1ccc(Cl)cc1)c1cnc(-c2ccccc2)nc1-c1ccccc1` on Cytochrome P450 2C19 (Homo sapiens); AC50 returned: 1 µM (inconclusive)

Fill in: Cytochrome P450 2C19 (Homo sapiens) AC50 for `Cc1nc(C(=O)Nc2ccc(Cl)cc2Cl)nn1-c1cc(OC(C)C)c(Cl)cc1Cl` = 7.08 µM (inconclusive)

Readout AC50 for `Cn1nc(-c2ccccc2)c(C(=O)Nc2ccc(Cl)cc2)c1Cl` , test system Cytochrome P450 2C19 (Homo sapiens), was 2 µM (inconclusive)

The compound COCCCNC(=O)C1CCC(=O)N1Cc1ccccc1Cl (configuration not stated) , tested on Cytochrome P450 2C19 (Homo sapiens), showed AC50 of 22.4 µM (inconclusive)

For the compound `COc1ccc(C(C)(C)C)cc1NC(=O)c1cncc(Br)c1` , the measured AC50 on Cytochrome P450 2C19 (Homo sapiens) was 10 µM (inconclusive)

// returns AC50 for `CCC(CC)C(=O)Nc1cccc(C(=O)Nc2ccc(OC)cc2[N+](=O)[O-])c1` with Cytochrome P450 2C19 (Homo sapiens); value = 0.316 µM (inconclusive)

Cytochrome P450 2C19 (Homo sapiens) data for `CCCc1nnc(NC(=O)Cn2cnc3ccccc3c2=O)s1` ; its AC50: 25.1 µM (inconclusive)

Observed AC50 on Cytochrome P450 2C19 (Homo sapiens), entry `CCCCCc1nc2c(O)nc3ccccc3c2o1` , equals 3.98 µM (inconclusive)

Query `C/N=C(N)/N=C(\N)Nc1cc2ccccc2c2ccccc12` on Cytochrome P450 2C19 (Homo sapiens); AC50 returned: 3.98 µM (inconclusive)
